The reader will find reported IC50 values listed item by item below.
Sequence of the target: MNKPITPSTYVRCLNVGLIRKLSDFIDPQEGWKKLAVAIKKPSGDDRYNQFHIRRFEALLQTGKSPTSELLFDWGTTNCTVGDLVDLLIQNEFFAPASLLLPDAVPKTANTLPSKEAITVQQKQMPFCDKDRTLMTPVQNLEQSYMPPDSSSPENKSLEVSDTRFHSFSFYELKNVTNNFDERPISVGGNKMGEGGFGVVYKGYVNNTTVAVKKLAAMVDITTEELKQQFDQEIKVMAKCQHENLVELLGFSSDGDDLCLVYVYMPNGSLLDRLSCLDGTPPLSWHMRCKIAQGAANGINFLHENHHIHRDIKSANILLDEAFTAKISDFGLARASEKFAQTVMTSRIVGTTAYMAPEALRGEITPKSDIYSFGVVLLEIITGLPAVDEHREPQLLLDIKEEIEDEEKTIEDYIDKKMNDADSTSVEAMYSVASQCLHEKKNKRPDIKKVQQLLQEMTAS
readoutLabel: IC50

[[record]]
smilesinput = "Cc1c(/C=C2\\C(=O)Nc3ccc(S(=O)(=O)Nc4ccc(F)cc4)cc32)[nH]c2cc(N3CCNCC3)ccc12"
experimentalvalue = "< 100 nM"

[[record]]
smilesinput = "O=C1Nc2ccc(S(=O)(=O)Nc3ccc(F)cc3)cc2/C1=C/Nc1cnn2cc(N3CCNCC3)ccc12"
experimentalvalue = "500 to 1000 nM"

[[record]]
smilesinput = "O=C1Nc2ccc(S(=O)(=O)Nc3ccc(F)cc3)cc2/C1=C/c1cc2ccc(N3CCNCC3)cc2[nH]1"
experimentalvalue = "< 100 nM"

[[record]]
smilesinput = "CCNS(=O)(=O)c1ccc2c(c1)/C(=C\\c1cc3cc(N4CCNCC4)ccc3o1)C(=O)N2"
experimentalvalue = "100 to 500 nM"

[[record]]
smilesinput = "Cc1ccc(/C=C2/C(=O)Nc3ccc(S(=O)(=O)Nc4ccc(F)cc4)cc32)o1"
experimentalvalue = "> 1000 nM"

[[record]]
smilesinput = "O=C1Nc2ccc(S(=O)(=O)Nc3ccc(F)cc3)cc2/C1=C/Nc1cn(C2CCCCC2)nc1C(F)F"
experimentalvalue = "< 100 nM"


The measured values listed here are drawn from patent US20260217704A1.
